Values were extracted from PubChem BioAssay.

Biological target: Dihydroorotate dehydrogenase (quinone), mitochondrial (Plasmodium falciparum (isolate 3D7)) (UniProt Q08210)
Sequence (Q08210 whole entry, looked up): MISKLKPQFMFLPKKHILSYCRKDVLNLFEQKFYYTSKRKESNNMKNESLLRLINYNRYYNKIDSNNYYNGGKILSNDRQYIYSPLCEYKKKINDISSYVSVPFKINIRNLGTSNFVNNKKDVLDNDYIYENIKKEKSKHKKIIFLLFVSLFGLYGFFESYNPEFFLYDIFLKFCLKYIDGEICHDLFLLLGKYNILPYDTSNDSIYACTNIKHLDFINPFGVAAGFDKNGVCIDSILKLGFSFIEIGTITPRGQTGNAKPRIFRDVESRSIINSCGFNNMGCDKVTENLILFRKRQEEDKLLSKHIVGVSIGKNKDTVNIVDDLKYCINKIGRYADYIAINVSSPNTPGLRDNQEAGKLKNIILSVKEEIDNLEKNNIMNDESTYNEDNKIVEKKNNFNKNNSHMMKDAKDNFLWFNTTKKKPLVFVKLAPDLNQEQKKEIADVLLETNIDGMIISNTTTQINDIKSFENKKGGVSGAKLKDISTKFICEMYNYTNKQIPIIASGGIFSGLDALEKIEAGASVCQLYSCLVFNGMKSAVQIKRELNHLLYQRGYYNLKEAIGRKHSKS
Test: PfDHODH enzyme inhibitors, primary screen, biochemical, C-terminal His tag, absorbance 600 nm (AID 1175);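 note: recombinant parasite enzyme with a five histidine tag at its C terminus; test concentration not given here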
Details: DCIP absorbance 600 nm, higher = more signal, called active from +8 up or from −8 down
Quick rule: composite z-score of at least -0.3 means TRUE, below that means FALSE.

{"compound": "COCCCNC(=O)[C@]1(Cc2ccccc2N=[N+]=[N-])N=C(c2ccc(OCCCO)cc2)O[C@@H]1c1ccccc1", "group": "TRUE"}
{"compound": "COC(=O)[C@]1(Cc2ccccc2CN=[N+]=[N-])N=C(c2ccc(OCCCO)cc2)O[C@@H]1c1ccccc1N=[N+]=[N-]", "group": "TRUE"}
{"compound": "C=CCN1C(=O)[C@]2(O[C@H](CCO)[C@@H]([Si](C)(C)c3ccc(OC)cc3)[C@@H]2C)c2cc(N3C(=O)c4ccccc4Oc4ccccc43)ccc21", "group": "TRUE"}
{"compound": "COc1ccc(CCNC(=O)[C@@]2(c3ccc([N+](=O)[O-])cc3)CC(=O)N(C3CCCCC3)[C@@H]2c2ccc(CO)cc2I)cc1", "group": "TRUE"}
{"compound": "CCCCC(=C=CC[C@@H](O)c1ccc(OCCO)cc1)CCO", "group": "FALSE"}
{"compound": "O=C1OC[C@@H](c2ccccc2)n2cc(/C=C/c3ccccc3)cc21", "group": "FALSE"}
{"compound": "C=C1C(=O)C=C2CN(C(=O)c3ccccc3)[C@@](Cc3ccc(F)cc3)(C(=O)OC)[C@@H]12", "group": "FALSE"}
{"compound": "CN1C(=O)C2C=CC(C(O)c3ccc(I)cc3)N(N(c3ccccc3)c3ccccc3)C2C1=O (stereo unspecified)", "group": "TRUE"}
{"compound": "C=CCNC(=O)[C@H]1[C@@H]2C(=O)O[C@@H](c3ccccc3)[C@@H](c3ccccc3)N2[C@@H](c2ccc(O)cc2)[C@]12C(=O)Nc1ccccc12", "group": "TRUE"}
{"compound": "CCCCC(=C=CC[C@@H](O)c1ccccc1OCCO)C[C@@H](O)c1ccccn1", "group": "FALSE"}
{"compound": "CCOC(=O)C[C@H]1[C@H](OC(=O)c2cc3ccccc3oc2=O)[C@@H](NC(=O)Cc2ccc(OC)cc2)c2cc(OCCCO)ccc2N1C(=O)Cc1ccc(OC)cc1", "group": "FALSE"}
{"compound": "COc1ccc([Si](C)(C)[C@H]2[C@H](CC(=O)N(CCO)Cc3ccccc3)O[C@@]3(C(=O)N(c4ccccc4)c4ccccc43)[C@@H]2C)cc1", "group": "TRUE"}
{"compound": "C=CCNC(=O)[C@@H]1[C@H]2C(=O)O[C@H](c3ccccc3)[C@H](c3ccccc3)N2[C@H](c2ccc(O)cc2)[C@@]12C(=O)Nc1ccc(C#CC3=CCCCC3)cc12", "group": "FALSE"}
{"compound": "COC(=O)[C@@]1(Cc2ccc(F)cc2)[C@H]2c3cc(C(=O)N(C)C)n(Cc4ccsc4Br)c3C[C@H]2CN1C(=O)c1ccccc1", "group": "FALSE"}
{"compound": "COC(=O)[C@@]1(Cc2ccc(F)cc2)[C@@H]2C(=CC(=O)[C@H]2CC(=O)C(=O)N2CCCC2)CN1C(=O)c1ccccc1", "group": "FALSE"}
{"compound": "COc1cc(Cc2cc3c(c(CCc4ccccc4)n2)[Si](C(C)C)(C(C)C)O[C@H]3c2ccccc2)cc(OC)c1OC", "group": "FALSE"}
